Values from the supplement of paper PMC12317010

assay: collision cross section in nitrogen (drift tube, single-field); higher = larger gas-phase ion size; conditions: ion type: [M-H]; ion source: ESI; ion mode: Negative;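 also: chemical standards at 10 µM analysed by drift tube IMS-QTOF MS in about 3.95 torr nitrogen, mean of duplicate injections differing ≤1%, mass error below 10 ppm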
Counter-ions that a name gives are not always drawn.
observable: collision cross section in nitrogen (Å²)

compound=CC(C)CCCC(=O)O measurement=136.9
compound="O=C(Oc1cccc(O)c1)c1ccccc1 [Resorcinol monobenzoate]" measurement=152.9
compound=O=c1c(O)c(-c2ccc(O)c(O)c2)oc2cc(O)cc(O)c12 measurement=164.7
compound="COc1cccc2c1C(=O)c1c(O)c3c(c(O)c1C2=O)C[C@@](O)(C(=O)CO)C[C@@H]3O[C@H]1C[C@H](N)[C@H](O)[C@H](C)O1 [Doxorubicin hydrochloride]" measurement=223.1
compound=Oc1ccccc1I measurement=121.9

a: Oc1c(Cl)cc(Cl)c(Cl)c1Cc1c(O)c(Cl)cc(Cl)c1Cl
b: Oc1cccc(C(F)(F)F)c1
Q) // compare: a vs b , metric collision cross section in nitrogen, want the smaller Write down the label of the entry you select.
A) b

---

assay: collision cross section in nitrogen (drift tube, single-field); higher = larger gas-phase ion size; conditions: ion type: [M+Na]; ion source: ESI; ion mode: Positive
observable: collision cross section in nitrogen (Å²)

compound="CCOC(=O)[C@@H](O)[C@H](O)C(=O)OCC [(-)-Diethyl-D-tartrate]" measurement=153.6
compound="CCOC(=O)C1=NN(c2ccc(Cl)cc2Cl)C(C)(C(=O)OCC)C1 (stereo not drawn)" measurement=194.8
compound="CCCCOCCOC(=O)c1ccccc1C(=O)OCCOCCCC [Bis(2-butoxyethyl) phthalate]" measurement=187.5
compound="COc1ccc(Cl)cc1C(=O)NCCc1ccc(S(=O)(=O)NC(=O)NC2CCCCC2)cc1 [Glybenclamide]" measurement=217.6
compound="CCCCCCCCC(=O)OCC(C)OC(=O)CCCCCCCC (stereo not drawn) [Propylene glycol dipelargonate]" measurement=207.9
compound=CCc1c(C(=O)NN2CCCCC2)nn(-c2ccc(Cl)cc2Cl)c1-c1ccc(Br)cc1 measurement=232.1
compound=CCCCc1ccc2c(n1)[C@@H](c1ccc(OC)cc1C[C@H](C)C(=O)O)[C@H](C(=O)O)[C@H]2c1ccc2c(c1)OCO2 measurement=234.1
compound=COCN(COC)c1nc(N(COC)COC)nc(N(COC)COC)n1 measurement=194.1

---

test: collision cross section in nitrogen (drift tube, single-field); higher = larger gas-phase ion size; conditions: ion type: [M+H]; ion source: ESI; ion mode: Positive
observable: collision cross section in nitrogen (Å²)

# example entries with known answers
compound="Cc1ccc(N=Nc2c(O)ccc3ccccc23)c(C)c1 [C.I. Solvent Orange 7]" unitssymbol=Å² measurement=166.8
compound="Cc1ccc(N(CCO)CCO)cc1 [2,2'-[(4-Methylphenyl)imino]diethanol]" unitssymbol=Å² measurement=143.4

1: c1ccc2sc(SN(C3CCCCC3)C3CCCCC3)nc2c1 [N,N-Dicyclohexyl-2-benzothiazolesulfenamide]
2: CN(C)c1ccncc1 [N,N-dimethylpyridin-4-amine]
Q) // compare: 1 vs 2 , metric collision cross section in nitrogen, want the smaller Write down the label of the entry you select.
A) 2
(2: 120.5 Å², 1: 185.8 Å²)

---

assay: collision cross section in nitrogen (drift tube, single-field); higher = larger gas-phase ion size; settings: ion type: [M-H]; ion source: ESI; ion mode: Negative
Where a name gives a salt, the structure may show the parent alone.
observable: collision cross section in nitrogen (Å²)

compound="Nc1ccc2c(S(=O)(=O)O)cccc2c1S(=O)(=O)O [1,5-Naphthalenedisulfonic acid, 2-amino-, sodium salt (1:1)]" measurement=159.4
compound="CCC(=NOC/C=C/Cl)C1=C(O)CC(C2CCOCC2)CC1=O (stereo not given)" measurement=181.1
compound="NC(=O)N1C(=O)C(C(=O)c2cc(Cl)cs2)c2cc(F)c(Cl)cc21 (stereo not given)" measurement=173.7
compound=CC(C)(C)c1cc(Cc2cc(C(C)(C)C)c(O)c(C(C)(C)C)c2)cc(C(C)(C)C)c1O measurement=221.2
compound=O=c1[nH]cnc2c1ncn2[C@H]1CC[C@@H](CO)O1 measurement=153.5
compound=Cc1c[nH]c2ccccc12 measurement=125.2
compound=O=c1ccc2ccc(O)cc2o1 measurement=127.4
compound=CSc1ccc(Oc2ccc(S(N)(=O)=O)cc2CN(C)C)cc1C measurement=196.9
compound="CCOP(=O)(O)OCC [Diethyl hydrogen phosphate]" measurement=129.2
compound=CC(=O)Nc1ccc(N=Nc2cc(C)ccc2O)cc1 measurement=168.7
compound=COc1ccc(-c2coc3cc(O)cc(O)c3c2=O)cc1 measurement=168
compound=O=[N+]([O-])/N=C1\NCCN1Cc1ccc(Cl)nc1 measurement=157.3
compound=Oc1cccc(O)c1 measurement=118.9
compound=COc1cc(S(=O)(=O)O)c(C)cc1N=Nc1c(O)ccc2cc(S(=O)(=O)O)ccc12 measurement=214.8
compound=CCCc1ccccc1O measurement=129.6
compound="NCCOS(=O)(=O)O [2-Aminoethyl hydrogen sulfate]" measurement=121.6
compound="O=C(O)c1cc(C(=O)O)cc(S(=O)(=O)O)c1 [Lithium 3-carboxy-5-sulfobenzoate]" measurement=147.3
compound="COc1ccc(Cl)cc1C(=O)NCCc1ccc(S(=O)(=O)NC(=O)NC2CCCCC2)cc1 [Glybenclamide]" measurement=213.2
compound=Cc1cc(=O)oc2cc(O)ccc12 measurement=133.3
compound=Cc1c(C(=O)O)c(O)cc2c1C(=O)c1c(O)c([C@@H]3O[C@H](CO)[C@@H](O)[C@H](O)[C@H]3O)c(O)c(O)c1C2=O measurement=208.9
compound="Cc1cc(C(F)(C(F)(F)F)C(F)(F)F)ccc1NC(=O)c1cccc(I)c1C(=O)NC(C)(C)CS(C)(=O)=O [Flubendiamide]" measurement=222.1
compound="O=c1[nH]c2ccccc2n1C1CCN(CCCC(c2ccc(F)cc2)c2ccc(F)cc2)CC1 [Pimozide]" measurement=215.8
compound="CC(=O)CC(=O)Nc1ccccc1C [N-(2-Methylphenyl)-3-oxobutanamide]" measurement=142.5
compound="O=S(=O)(O)c1ccc2cc(O)c(S(=O)(=O)O)cc2c1 [Disodium 3-hydroxynaphthalene-2,7-disulfonate]" measurement=160.1
compound=Cc1cc(CCN2CCN(c3nsc4ccccc34)CC2)cc2c1NC(=O)CC2(C)C measurement=209.3
compound=Nc1ccc(Cl)cc1C(=O)c1ccccc1 measurement=150.4
compound="C=CC(C)(CCC=C(C)C)OC(C)=O (stereo not given) [Linalyl acetate]" measurement=152
compound=CCOc1cccc(-n2cc(C(=O)N3CCN(c4cc(C(=O)O)c5ccccc5c4)CC3)nc2-c2ccc(C)cc2)c1 measurement=232.5
compound="CCCCCCCC(=O)OCC [Ethyl octanoate]" measurement=149.5
compound=Nc1c(Cl)cc([N+](=O)[O-])cc1Cl measurement=131
compound=O=C(O)c1ccccc1O measurement=121.2
compound=O=C(Oc1ccccc1)c1ccc(O)cc1 measurement=150.3
compound="CC(C)c1ccc(C(=O)N=C(N)N)cc1S(C)(=O)=O [Cariporide mesylate]" measurement=169.3
compound="CCCCCCCCSCc1cc(C)c(O)c(CSCCCCCCCC)c1 [2-Methyl-4,6-bis[(octylthio)methyl]phenol]" measurement=208
compound="N#Cc1ccc(CC(=O)c2cccc(C(F)(F)F)c2)cc1 [4-{2-Oxo-2-[3-(trifluoromethyl)phenyl]ethyl}benzonitrile]" measurement=163
